Test: Cytotoxicity against human MT4 cells by MTT assay
Type: cell-based
Starred links: 1 amine or outer side, 2 acyl side, 3 side chain; linkers in the order of their positions; H or OH if unused. Positions of bridges follow the written chain, without caps; N, C: chain ends. Non-standard residues stand in square brackets, D forms with d. Residues, ends and D or L forms follow the SMILES beside them. αMeNva(5-ylidene) = C[C@@](CCC=[*:3])(N[*:1])C(=O)[*:2]; S5 = C=CCCC[C@](C)(N)C(=O)O
The following molecules are shown together with reported CC50 values.

Please review the entries below; each comes with its answer.
CC(C)C[C@H](NC(=O)[C@H](CCCCN)NC(=O)[C@H](CC(C)C)NC(=O)[C@H](CC(C)C)NC(=O)[C@H](Cc1ccccc1)NC(=O)[C@H](Cc1ccc(O)cc1)NC(=O)[C@H](C)NC(=O)[C@@H](NC(=O)c1ccc2c(c1)C(=O)OC21c2ccc(O)cc2Oc2cc(O)ccc21)[C@@H](C)O)C(=O)N[C@@H](C)C(=O)NCC(=O)N[C@@H](CCCNC(=N)N)C(=O)N[C@@H](Cc1c[nH]c2ccccc12)C(=O)O (mixture of isomers) ... 70 µM
CC(C)C[C@@H]1NC(=O)[C@H](CCCCN)NC(=O)[C@H](CC(C)C)NC(=O)[C@@](C)(NC(=O)[C@H](Cc2ccccc2)NC(=O)[C@H](Cc2ccc(O)cc2)NC(=O)[C@H](C)NC(=O)[C@@H](N)[C@@H](C)O)CC/C=C/CC[C@@](C)(C(=O)NCC(=O)N[C@@H](CCCNC(=N)N)C(=O)N[C@@H](Cc2c[nH]c3ccccc23)C(=O)O)NC1=O (H-TAYF[αMeNva(5-ylidene)]LKL[αMeNva(5-ylidene)]GRW-OH; staple (E) 5-9) ... 40 µM
CC[C@H](C)[C@@H]1NC(=O)[C@H](CC(C)C)NC(=O)[C@@](C)(NC(=O)[C@H](Cc2ccccc2)NC(=O)[C@H](Cc2ccc(O)cc2)NC(=O)[C@H](C)NC(=O)[C@@H](N)[C@@H](C)O)CCC/C=C\CCC[C@@](C)(C(=O)NCC(=O)N[C@@H](CCCNC(=N)N)C(=O)N[C@@H](Cc2c[nH]c3ccccc23)C(=O)O)NC(=O)[C@H](CC(C)C)NC1=O (H-TAYF[S5]LIL[S5]GRW-OH; staple (Z) 5-9) ... 41 µM
C=CCCC[C@](C)(NC(=O)[C@H](CC(C)C)NC(=O)[C@@H](NC(=O)[C@H](CC(C)C)NC(=O)[C@](C)(CCCC=C)NC(=O)[C@H](Cc1ccccc1)NC(=O)[C@H](Cc1ccc(O)cc1)NC(=O)[C@H](C)NC(=O)[C@@H](N)[C@@H](C)O)[C@@H](C)CC)C(=O)NCC(=O)N[C@@H](CCCNC(=N)N)C(=O)N[C@@H](Cc1c[nH]c2ccccc12)C(=O)O (H-TAYF[S5]LIL[S5]GRW-OH) ... 18 µM

# CC50 lookup, item CC(C)C[C@H](NC(=O)[C@H](CCCCN)NC(=O)[C@H](CC(C)C)NC(=O)[C@]1(C)CCC/C=C\CCC[C@](C)(N)C(=O)N[C@@H](C)C(=O)N[C@@H](Cc2ccc(O)cc2)C(=O)N[C@@H](Cc2ccccc2)C(=O)N1)C(=O)N[C@@H](C)C(=O)NCC(=O)N[C@@H](CCCNC(=N)N)C(=O)N[C@@H](Cc1c[nH]c2ccccc12)C(=O)O (H-[S5]AYF[S5]LKLAGRW-OH; staple (Z) 1-5)
25 µM

Continue with CC(C)C[C@@H]1NC(=O)[C@H](CCCCN)NC(=O)[C@H](CC(C)C)NC(=O)[C@@](C)(NC(=O)[C@H](Cc2ccccc2)NC(=O)[C@H](Cc2ccc(O)cc2)NC(=O)[C@H](C)NC(=O)[C@@H](NC(=O)c2ccc3c(c2)C(=O)OC32c3ccc(O)cc3Oc3cc(O)ccc32)[C@@H](C)O)CCC/C=C\CCC[C@@](C)(C(=O)NCC(=O)N[C@@H](CCCNC(=N)N)C(=O)N[C@@H](Cc2c[nH]c3ccccc23)C(=O)O)NC1=O (mixture of isomers)
> 125 µM

Continue with CC(C)C[C@@H]1NC(=O)[C@H](CCCCN)NC(=O)[C@H](CC(C)C)NC(=O)[C@@](C)(NC(=O)[C@H](Cc2ccccc2)NC(=O)[C@H](Cc2ccc(O)cc2)NC(=O)[C@H](C)NC(=O)[C@@H](N)[C@@H](C)O)CCC/C=C\CCC[C@@](C)(C(=O)NCC(=O)N[C@@H](CCCNC(=N)N)C(=O)N[C@@H](Cc2c[nH]c3ccccc23)C(=O)O)NC1=O (H-TAYF[S5]LKL[S5]GRW-OH; staple (Z) 5-9)
50 µM

These measurements were taken from ChEMBL document CHEMBL2396599.
